# system-name: Human TRPV3 (Homo sapiens, UniProt Q8NET8)
# Construct: expressed in transfected cells; host or cells: CHO cells (G-418 selection)
# Sequence (Q8NET8 whole entry): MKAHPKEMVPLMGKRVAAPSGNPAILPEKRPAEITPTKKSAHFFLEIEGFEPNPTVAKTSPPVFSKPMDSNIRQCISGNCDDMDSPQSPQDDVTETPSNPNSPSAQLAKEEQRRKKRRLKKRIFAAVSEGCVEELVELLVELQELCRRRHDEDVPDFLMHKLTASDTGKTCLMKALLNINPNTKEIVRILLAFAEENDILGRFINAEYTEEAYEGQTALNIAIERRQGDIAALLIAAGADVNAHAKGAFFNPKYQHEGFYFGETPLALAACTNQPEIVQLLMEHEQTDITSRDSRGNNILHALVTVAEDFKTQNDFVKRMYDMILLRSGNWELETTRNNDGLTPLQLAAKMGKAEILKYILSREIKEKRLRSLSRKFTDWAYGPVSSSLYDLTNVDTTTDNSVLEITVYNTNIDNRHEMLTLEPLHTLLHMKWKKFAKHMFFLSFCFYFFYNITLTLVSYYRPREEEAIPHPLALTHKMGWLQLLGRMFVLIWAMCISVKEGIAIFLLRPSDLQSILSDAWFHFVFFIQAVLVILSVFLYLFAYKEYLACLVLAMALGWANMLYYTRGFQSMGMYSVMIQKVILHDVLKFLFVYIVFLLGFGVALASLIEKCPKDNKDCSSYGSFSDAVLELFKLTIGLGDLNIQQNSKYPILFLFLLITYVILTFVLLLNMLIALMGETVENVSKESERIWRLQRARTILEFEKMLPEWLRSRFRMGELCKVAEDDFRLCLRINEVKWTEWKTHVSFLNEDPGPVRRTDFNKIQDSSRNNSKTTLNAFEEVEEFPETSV
# assay-comment: Screening for TRPV3 antagonist using the 45Calcium uptake assay (inhibition of 2-APB induced cellular uptake of radioactive calcium)
# Assay type: cell-based
# measurement-setup: 10.0 μM test compound; human TRPV3 expressing CHO cells; 2-APB 500 μM
measure: Percentage inhibition at 10.0 μM (%)
Please state the figure in %; there is no need to write the unit.

- COc1cccc(/C=C/c2nc3sccn3c(=O)c2-c2ccc(OC(F)(F)F)cc2)c1OCCCCF: 93.5
- COc1cccc(/C=C/c2nc3sccn3c(=O)c2-c2ccc(C#N)cc2)c1OCCCC#N: 24.5
- COc1cccc(/C=C/c2nc3sccn3c(=O)c2-c2ccc(C(F)(F)F)cc2)c1OCc1ccccn1: 0.0
- COc1cccc(/C=C/c2nc3sc4ccccc4n3c(=O)c2-c2ccc(C#N)cc2)c1OCCCC#N: 57.1
- CCOCCOc1c(/C=C/c2nc3sccn3c(=O)c2-c2ccc(C(F)(F)F)cc2)cccc1OC: 97.7
- COc1cccc(/C=C/c2nc3sccn3c(=O)c2-c2ccc(C(C)=O)cc2)c1OCC1CC1: 95.1
- O=c1c(-c2ccc(OC(F)(F)F)cc2)c(/C=C/c2cccc(O)c2O)nc2sccn12: 0.00

Okay, next one:
Q: Suppose we examine the compound `COc1cccc(/C=C/c2nc3sccn3c(=O)c2-c2ccc(C(F)(F)F)cc2)c1OCCCC#N` ; what Percentage inhibition at 10.0 μM value has been reported?
Result: 75.9

---

# system-name: Human TRPV3 (Homo sapiens, UniProt Q8NET8)
# Construct: expressed in transfected cells; host or cells: CHO cells (G-418 selection)
# assay-comment: Screening for TRPV3 antagonist using the 45Calcium uptake assay (inhibition of 2-APB induced cellular uptake of radioactive calcium)
# Format: cell-based
# measurement-setup: 10.0 μM test compound; human TRPV3 expressing CHO cells; 2-APB 500 μM; read-out: Percentage inhibition at 10.0 μM
Each entry falls in a class defined on inhibition at 10 µM; the bands are b0: < 70%; b1: ≥ 70% and < 90%; b2: ≥ 90%

Observe how each entry below is paired with its result.
* COCCOc1c(/C=C/c2nc3sccn3c(=O)c2-c2ccc(C(F)(F)F)cc2)cccc1OC [Example 31] | b2
* COc1cccc(/C=C/c2nc3sc4ccccc4n3c(=O)c2-c2ccc(OC(F)(F)F)cc2)c1OCC1CC1 [Example 95] | b0
* N#Cc1ccc(-c2c(/C=C/c3cccnc3)nc3sccn3c2=O)cc1 [Example 23] | b0
* CCOCCOc1c(/C=C/c2nc3sccn3c(=O)c2-c2ccc(OC(F)(F)F)cc2)cccc1OC [Example 53] | b2

Field: next compound
Q: Returns: class label. Input: CCCCOc1c(/C=C/c2nc3sccn3c(=O)c2-c2ccc(C(F)(F)F)cc2)cccc1OC [Example 26]
Result: b1

---

# system-name: Human TRPV3 (Homo sapiens)
# Construct: expressed in transfected cells; host or cells: CHO cells (G-418 selection)
# assay-comment: Screening for TRPV3 antagonist using the 45Calcium uptake assay (inhibition of 2-APB induced cellular uptake of radioactive calcium)
# Assay type: cell-based
# measurement-setup: 1.0 μM test compound; human TRPV3 expressing CHO cells; 2-APB 500 μM; read-out: Percentage inhibition at 1.0 μM
Here the recorded inhibition at 1 µM is given for each entry.
Please state the figure in %; there is no need to write the unit.

Illustrative cases are given below, each with its answer.
• COc1cccc(/C=C/c2nc3sccn3c(=O)c2-c2ccc(OCC(F)(F)F)cc2)c1OCC1CC1 = 30.7
• COc1cccc(/C=C/c2nc3sccn3c(=O)c2-c2ccc(C#N)cc2)c1OCC(C)(C)C = 91.9
• COc1cccc(/C=C/c2nc3scc(C(F)(F)F)n3c(=O)c2-c2ccc(C#N)cc2)c1OCC(C)(C)C = 57.4
• COc1cccc(/C=C/c2nc3sccn3c(=O)c2-c2ccc(OC(F)(F)F)cc2)c1O = 51.5

Q: Suppose we examine the compound `CCCCOc1c(/C=C/c2nc3sccn3c(=O)c2-c2ccc(OC(F)(F)F)cc2)cccc1OC` ; what inhibition at 1 µM value has been reported?
Result: 79.4

Q: What do you have for `COc1cccc(/C=C/c2nc3sccn3c(=O)c2-c2ccc(C(F)(F)F)cc2)c1OCC(C)C` ?
Result: 69.6

Q: What do you have for `COc1cccc(/C=C/c2nc3sccn3c(=O)c2-c2ccc(N(C)C)cc2)c1OCC(C)C` ?
Result: 75.5

Q: What do you have for `COCCOc1c(/C=C/c2nc3sc4ccccc4n3c(=O)c2-c2ccc(OC(F)(F)F)cc2)cccc1OC` ?
Result: 24.8
